experiment: Cmax in Sprague-Dawley rat at 2 mg/kg, iv measured upto 24 hrs by LC-MS/MS analysis; type: ADME, organism-based; parameters: dose 2 mg/kg, time < 24 hrs, route iv; conditions: in vivo
readout_name: Cmax (ng/mL)
The reply should be a number in ng/mL, with the unit left off.

Recorded Cmax (molecule O=C(NCc1cccs1)[C@@H]1CN(C(=O)c2cccnc2)CCN1c1ccc(Cl)c(Cl)c1 ): 1310

---

target: Cathepsin F (Homo sapiens); assay: Inhibition of human Cathepsin F using Z-Phe-Arg-AMC as fluorogenic substrate incubated for 60 mins by FRET assay
Sequence (Q9UBX1 271-484 limits assumed): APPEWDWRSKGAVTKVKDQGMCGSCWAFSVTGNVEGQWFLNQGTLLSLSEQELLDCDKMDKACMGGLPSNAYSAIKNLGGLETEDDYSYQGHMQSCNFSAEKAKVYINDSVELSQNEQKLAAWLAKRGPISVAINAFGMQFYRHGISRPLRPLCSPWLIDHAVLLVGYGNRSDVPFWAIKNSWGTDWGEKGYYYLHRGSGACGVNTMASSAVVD
readout_name: pIC50
Reminder that pIC50 means the negative base-10 logarithm of the concentration expressed in mol/L.

Field: example entries. Status: answers known.
CC(C)C[C@H](NC(=O)OCc1ccccc1)C(=O)N[C@@H](C[C@@H]1CCNC1=O)C(O)S(=O)(=O)O (stereo partly drawn)
7.13
O=C(NCc1cccs1)[C@@H]1CN(C(=O)c2cncc3ccccc23)CCN1c1ccc(Cl)c(Cl)c1
4.30

As a next step, examine the molecule that follows.
pIC50 in this record for O=C(NCc1cccs1)[C@@H]1CN(C(=O)c2cccnc2)CCN1c1ccc(Cl)c(Cl)c1 : 4.30

---

This section presents compounds with their documented pIC50 values.
assay: Inhibition of SARS-CoV-1 main protease; parameters: species or system Severe acute respiratory syndrome-related coronavirus
Just the number, please; pIC50 means minus log10 of the concentration in mol/L.

O=C(NCc1ccco1)[C@@H]1CN(C(=O)c2cc(=O)[nH]c(=O)[nH]2)CCN1c1ccc(Cl)c(Cl)c1
6.00
O=C(NCc1cccs1)[C@@H]1CN(C(=O)c2cc(=O)[nH]c(=O)[nH]2)CCN1Cc1ccc(Cl)cc1Cl
5.89
O=C(NCc1cccs1)[C@@H]1CN(C(=O)c2cccnc2)CCN1c1ccc(Cl)c(Cl)c1
5.34
O=C(NCc1ccco1)[C@@H]1CN(C(=O)c2cc(=O)[nH]c(=O)[nH]2)CCN1Cc1ccc(Cl)cc1Cl
5.78

Proceed to the following item.
get_value(item= O=C(NCc1cccs1)[C@@H]1CN(C(=O)c2cc(=O)[nH]c(=O)[nH]2)CCN1c1ccc(Cl)c(Cl)c1 (racemic) , readout=pIC50) returns 5.96

---

assay: Tmax in Sprague-Dawley rat at 10 mg/kg, po measured upto 24 hrs by LC-MS/MS analysis; assay type: ADME, organism-based; details: in vivo
readout_name: Tmax

Field Tmax (entry O=C(NCc1cccs1)[C@@H]1CN(C(=O)c2cccnc2)CCN1c1ccc(Cl)c(Cl)c1 ) reads 30 min

---

experiment: C0 in Sprague-Dawley rat at 2 mg/kg, iv measured upto 24 hrs by LC-MS/MS analysis; format: ADME, organism-based; details: in vivo
readout_name: C0 at 24 h (ng/mL)
Unit ng/mL implied. Number only.

Reported C0 at 24 h of O=C(NCc1cccs1)[C@@H]1CN(C(=O)c2cccnc2)CCN1c1ccc(Cl)c(Cl)c1 : 1760

---

Recorded pIC50 values (Cathepsin B (Homo sapiens)) are given below.
Entry type: numeric. Quantity: pIC50, the -log10 of concentration in molar units.

O=C(NCc1cccs1)[C@@H]1CN(C(=O)c2cccnc2)CCN1c1ccc(Cl)c(Cl)c1
4.30

As a next step, examine the molecule that follows.
Reported pIC50 (Cathepsin B (Homo sapiens)) for entry O=C(NCc1cccs1)[C@@H]1CN(C(=O)c2cncc3ccccc23)CCN1c1ccc(Cl)c(Cl)c1 is 4.30
